Tested on: MT4
protocol details: Cytotoxicity against human MT4 cells assessed as reduction in cell viability incubated for 2 days by CytoTox-Glo cytotoxicity assay
Format: cell-based
test conditions: mt4, 48 h, time 2 day
observable: CC50

item smiles	CC50
C=C(C)[C@@H]1CC[C@]2(C(=O)OCCCNc3nccs3)CC[C@]3(C)[C@H](CC[C@@H]4[C@@]5(C)CC[C@H](OC(=O)CC(C)(C)C(=O)O)C(C)(C)[C@@H]5CC[C@]43C)[C@@H]12	> 2000 nM

Here is another molecule to look at.
# input Kindly indicate its recorded CC50. Item: C=C(C)[C@@H]1CC[C@]2(C(=O)N3CCN(C(=O)/C=C/c4ccc(N(C)C)cc4)CC3)CC[C@]3(C)[C@H](CC[C@@H]4[C@@]5(C)CC[C@H](OC(=O)CC(C)(C)C(=O)O)C(C)(C)[C@@H]5CC[C@]43C)[C@@H]12
# output > 2000 nM
